Values from ChEMBL document CHEMBL1150387

target: MAP kinase-activated protein kinase 2 (Homo sapiens) (UniProt P49137); test: Inhibition of MAPKAPK2 at 10 uM by HTRF assay relative to control
Sequence (P49137 whole entry, looked up): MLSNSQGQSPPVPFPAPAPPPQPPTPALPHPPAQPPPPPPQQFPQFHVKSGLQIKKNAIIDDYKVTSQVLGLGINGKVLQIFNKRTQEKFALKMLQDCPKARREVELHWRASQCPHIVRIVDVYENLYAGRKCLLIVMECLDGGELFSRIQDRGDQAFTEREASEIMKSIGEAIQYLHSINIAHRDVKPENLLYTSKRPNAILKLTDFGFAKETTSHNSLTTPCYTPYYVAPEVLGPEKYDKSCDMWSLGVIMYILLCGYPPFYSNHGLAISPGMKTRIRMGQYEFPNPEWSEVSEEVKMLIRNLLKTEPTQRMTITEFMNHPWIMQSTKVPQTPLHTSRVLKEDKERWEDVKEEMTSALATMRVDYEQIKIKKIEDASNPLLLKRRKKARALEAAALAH
READOUT_LABEL: inhibition (%)

{"columns": ["MOLECULE", "MEASURED_TARGET", "MEASURED"],
 "data": [
  ["Nc1nc(Nc2ccc3ncsc3c2)cc(N2CCC[C@H]2C(=O)NCCc2cccc(I)c2)n1", "MAP kinase-activated protein kinase 2 (Homo sapiens) (UniProt P49137)", 3],
  ["CC(=O)N1CCN(C(=O)c2cccc(Nc3cc(N(C)c4cccc(C)c4)ncn3)c2)CC1", "MAP kinase-activated protein kinase 2 (Homo sapiens) (UniProt P49137)", 0],
  ["Cc1cccc(Nc2nccc(Nc3cccc(C(=O)NCc4ccc(N(C)C)cc4)c3)n2)c1", "MAP kinase-activated protein kinase 2 (Homo sapiens) (UniProt P49137)", 4],
  ["Cc1cccc(N(C)c2cc(Nc3cccc(C(=O)N(CC(C)C)CC(C)C)c3)ncn2)c1", "MAP kinase-activated protein kinase 2 (Homo sapiens) (UniProt P49137)", 0],
  ["Cc1cccc(N(C)c2cc(Nc3cccc(C(=O)NCc4ccc(N(C)C)cc4)c3)ncn2)c1", "MAP kinase-activated protein kinase 2 (Homo sapiens) (UniProt P49137)", 0],
  ["CN(CCCn1ccnc1)C(=O)[C@@H]1CCCN1c1nccc(Nc2ccccc2)n1", "MAP kinase-activated protein kinase 2 (Homo sapiens) (UniProt P49137)", 2],
  ["Cc1cc(C(=O)N2CCN(c3ncnc4c3CN(Cc3ccccc3)CC4)CC2)c(C)n1C", "MAP kinase-activated protein kinase 2 (Homo sapiens) (UniProt P49137)", 0],
  ["Cc1cccc(Oc2ccnc(N3CCC[C@H]3C(=O)NCCCn3ccnc3)n2)c1", "MAP kinase-activated protein kinase 2 (Homo sapiens) (UniProt P49137)", 2],
  ["Cc1ccc(CN2CCN(c3nccc(C(C#N)c4ccccn4)n3)CC2)cc1 (stereo not drawn)", "MAP kinase-activated protein kinase 2 (Homo sapiens) (UniProt P49137)", 0],
  ["Cc1cccc(Nc2nccc3c2CN(C(=O)c2cc(C)n(C)c2C)CC3)c1", "MAP kinase-activated protein kinase 2 (Homo sapiens) (UniProt P49137)", 0],
  ["COC[C@@H]1CCCN1C(=O)[C@@H]1CCCN1c1nccc(Nc2ccccc2)n1", "MAP kinase-activated protein kinase 2 (Homo sapiens) (UniProt P49137)", 1],
  ["O=C(NCc1ccncc1)c1cccc(Nc2cc(Nc3cccc(Br)c3)ncn2)c1", "MAP kinase-activated protein kinase 2 (Homo sapiens) (UniProt P49137)", 0],
  ["CN(C)CC(C)(C)CNC(=O)[C@@H]1CCCN1c1nccc(Nc2ccccc2)n1", "MAP kinase-activated protein kinase 2 (Homo sapiens) (UniProt P49137)", 4],
  ["Nc1nc(N2CCOCC2)cc(N2CCC(C(=O)NCCc3ccc(O)cc3)CC2)n1", "MAP kinase-activated protein kinase 2 (Homo sapiens) (UniProt P49137)", 0],
  ["Nc1nc(Nc2ccc3ncsc3c2)cc(N2CCC[C@H]2C(=O)N[C@@H](CO)c2ccccc2)n1", "MAP kinase-activated protein kinase 2 (Homo sapiens) (UniProt P49137)", 1],
  ["Nc1nc(Nc2ccc(C(=O)NCCc3ccncc3)cc2)cc(N2CCOCC2)n1", "MAP kinase-activated protein kinase 2 (Homo sapiens) (UniProt P49137)", 1],
  ["Cc1cccc(N(C)c2cc(Nc3cccc(C(=O)N4CCCC5CCCCC54)c3)ncn2)c1 (stereo not drawn)", "MAP kinase-activated protein kinase 2 (Homo sapiens) (UniProt P49137)", 0],
  ["CN(CCc1ccccn1)C(=O)c1cccc(Nc2nccc(Nc3ccc4ncsc4c3)n2)c1", "MAP kinase-activated protein kinase 2 (Homo sapiens) (UniProt P49137)", 1],
  ["Cc1cccc(N(C)c2cc(N3CCN(C(=O)Cc4c[nH]c5ccccc45)CC3)ncn2)c1", "MAP kinase-activated protein kinase 2 (Homo sapiens) (UniProt P49137)", 0],
  ["CN(C)CC(C)(C)CNC(=O)c1cccc(Nc2nccc(Nc3ccc4ncsc4c3)n2)c1", "MAP kinase-activated protein kinase 2 (Homo sapiens) (UniProt P49137)", 0],
  ["Cc1cccc(N(C)c2cc(Nc3cccc(C(=O)N(C)CCc4ccccn4)c3)ncn2)c1", "MAP kinase-activated protein kinase 2 (Homo sapiens) (UniProt P49137)", 0],
  ["O=C(CN1CCN(c2ncnc3c2CN(Cc2ccccc2)CC3)CC1)Nc1cc(F)ccc1F", "MAP kinase-activated protein kinase 2 (Homo sapiens) (UniProt P49137)", 0],
  ["Cc1cccc(N(C)c2cc(Nc3ccc(CC(=O)Nc4ccc5ncsc5c4)cc3)ncn2)c1", "MAP kinase-activated protein kinase 2 (Homo sapiens) (UniProt P49137)", 3],
  ["Cc1cccc(Nc2nccc(Nc3cccc(C(=O)N(C)CCc4ccccn4)c3)n2)c1", "MAP kinase-activated protein kinase 2 (Homo sapiens) (UniProt P49137)", 0],
  ["Nc1nc(N2CCOCC2)cc(N2CCC(C(=O)NCc3cccs3)CC2)n1", "MAP kinase-activated protein kinase 2 (Homo sapiens) (UniProt P49137)", 0],
  ["Cc1cccc(N(C)c2cc(N3CCN(CC(=O)Nc4nc(-c5ccccc5)cs4)CC3)ncn2)c1", "MAP kinase-activated protein kinase 2 (Homo sapiens) (UniProt P49137)", 3],
  ["O=C(NCc1cccnc1)c1cccc(-c2ccc(Nc3ccc4ncsc4c3)nn2)c1", "MAP kinase-activated protein kinase 2 (Homo sapiens) (UniProt P49137)", 6],
  ["Cc1cccc(Oc2ccnc(N3CCN(C(=O)c4c(C)noc4C)CC3)n2)c1", "MAP kinase-activated protein kinase 2 (Homo sapiens) (UniProt P49137)", 0]
]}

* * *

target: Tyrosine-protein kinase Fes/Fps (Homo sapiens) (UniProt P07332); experiment: Inhibition of FES at 10 uM by HTRF assay relative to control
Sequence (P07332 whole entry): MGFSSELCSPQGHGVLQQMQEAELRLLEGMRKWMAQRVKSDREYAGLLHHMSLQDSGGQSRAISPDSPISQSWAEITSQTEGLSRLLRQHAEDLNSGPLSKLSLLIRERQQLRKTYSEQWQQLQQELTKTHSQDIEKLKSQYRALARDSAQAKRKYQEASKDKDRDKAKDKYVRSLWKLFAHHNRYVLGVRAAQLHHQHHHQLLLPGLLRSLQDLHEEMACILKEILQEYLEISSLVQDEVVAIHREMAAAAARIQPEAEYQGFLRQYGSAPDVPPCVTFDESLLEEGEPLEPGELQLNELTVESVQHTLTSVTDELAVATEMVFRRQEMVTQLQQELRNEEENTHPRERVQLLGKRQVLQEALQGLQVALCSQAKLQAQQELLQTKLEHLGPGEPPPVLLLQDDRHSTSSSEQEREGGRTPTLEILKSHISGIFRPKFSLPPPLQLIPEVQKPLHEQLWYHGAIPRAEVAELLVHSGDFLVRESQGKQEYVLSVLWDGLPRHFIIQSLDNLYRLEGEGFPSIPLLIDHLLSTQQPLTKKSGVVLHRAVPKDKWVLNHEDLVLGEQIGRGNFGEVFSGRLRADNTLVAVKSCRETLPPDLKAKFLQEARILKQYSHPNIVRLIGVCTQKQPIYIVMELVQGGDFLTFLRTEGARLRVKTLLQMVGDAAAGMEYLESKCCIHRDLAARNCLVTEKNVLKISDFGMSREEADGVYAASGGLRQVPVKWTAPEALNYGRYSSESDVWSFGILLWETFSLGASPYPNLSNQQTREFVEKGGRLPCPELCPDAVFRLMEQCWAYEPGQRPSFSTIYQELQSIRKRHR
inhibition listing for selected molecules.

{"columns": ["MOLECULAR_STRING", "inhibition"],
 "data": [
  ["Cc1cccc(N(C)c2cc(Nc3cccc(C(=O)NCc4ccncc4)c3)ncn2)c1", "22%"],
  ["O=C(NCc1ccncc1)c1cccc(Nc2cc(Nc3cccc(Br)c3)ncn2)c1", "17%"],
  ["CN(C)c1ccc(C(=O)N2CCN(c3ncnc4c3CN(Cc3ccccc3)CC4)CC2)c2ccccc12", "2%"],
  ["O=C(NC[C@@H]1CCCO1)c1cccc(Nc2nccc(Nc3ccc4ncsc4c3)n2)c1", "90%"],
  ["Cc1cccc(Nc2ncnc3c2CN(C(=O)c2ccc(N(C)C)c4ccccc24)CC3)c1", "3%"],
  ["Clc1ccc2sc(CN3CCN(c4ncnc5c4CN(Cc4ccccc4)CC5)CC3)cc2c1", "6%"],
  ["CN(C)CC(C)(C)CNC(=O)[C@@H]1CCCN1c1nccc(Nc2ccccc2)n1", "20%"],
  ["O=C(C1CCN(c2nccc(Nc3ccccc3)n2)CC1)N1CC[C@@H](O)C1", "2%"],
  ["O=C(NC1Cc2ccccc2C1)c1cccc(Nc2ccnc(N3CCN(c4ccccc4)CC3)n2)c1", "5%"]
]}

* * *

biological target: RAC-alpha serine/threonine-protein kinase (Homo sapiens) (UniProt P31749); assay: Inhibition of AKT1/PKBalpha at 10 uM by HTRF assay relative to control
Sequence (P31749 whole entry): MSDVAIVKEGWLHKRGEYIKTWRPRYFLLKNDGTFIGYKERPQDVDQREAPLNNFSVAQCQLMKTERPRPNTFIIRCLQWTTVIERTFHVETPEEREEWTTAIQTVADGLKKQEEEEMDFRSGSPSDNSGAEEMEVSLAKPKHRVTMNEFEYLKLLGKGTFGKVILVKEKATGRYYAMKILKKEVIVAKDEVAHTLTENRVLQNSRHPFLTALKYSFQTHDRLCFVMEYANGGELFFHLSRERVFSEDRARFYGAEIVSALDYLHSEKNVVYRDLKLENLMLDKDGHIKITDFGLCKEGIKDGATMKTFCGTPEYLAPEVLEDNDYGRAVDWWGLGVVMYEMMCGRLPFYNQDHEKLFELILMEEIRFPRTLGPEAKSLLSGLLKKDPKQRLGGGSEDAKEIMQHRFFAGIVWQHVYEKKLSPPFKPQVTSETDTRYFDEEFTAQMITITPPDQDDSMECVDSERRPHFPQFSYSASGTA
Parameter: inhibition. Scope: all listed entries.

{"columns": ["COMPOUND", "MEASUREMENT_UNITS", "inhibition"],
 "data": [
  ["Cc1cccc(N(C)c2cc(Nc3cccc(C(=O)NCc4ccc(N(C)C)cc4)c3)ncn2)c1", "%", 0],
  ["Cc1cccc(N(C)c2cc(N3CCN(CC(=O)Nc4nc(-c5ccccc5)cs4)CC3)ncn2)c1", "%", 0],
  ["CN(C)CC(C)(C)CNC(=O)c1cccc(Nc2nccc(Nc3ccc4ncsc4c3)n2)c1", "%", 0],
  ["Nc1nc(Nc2ccccc2)cc(N2CCC(C(=O)NCCc3ccccn3)CC2)n1", "%", 0],
  ["Cc1ccc(CN2CCN(c3nccc(C(C#N)c4ccccn4)n3)CC2)cc1 (centres undefined)", "%", 0],
  ["Cc1cccc(Nc2ncnc3c2CN(C(=O)c2ccc(N(C)C)c4ccccc24)CC3)c1", "%", 0],
  ["O=C(NC1Cc2ccccc2C1)c1cccc(Nc2ccnc(N3CCN(c4ccccc4)CC3)n2)c1", "%", 2],
  ["O=C(NCc1cccnc1)c1cccc(-c2ccc(Nc3ccc4ncsc4c3)nn2)c1", "%", 5],
  ["Cc1cccc(Nc2nccc(Nc3cccc(C(=O)NCc4ccc(N(C)C)cc4)c3)n2)c1", "%", 1]
]}

* * *

biological target: Insulin-like growth factor 1 receptor (Homo sapiens) (UniProt P08069); assay: Inhibition of IGF1R at 10 uM by HTRF assay relative to control
Sequence (P08069 31-736 limits assumed): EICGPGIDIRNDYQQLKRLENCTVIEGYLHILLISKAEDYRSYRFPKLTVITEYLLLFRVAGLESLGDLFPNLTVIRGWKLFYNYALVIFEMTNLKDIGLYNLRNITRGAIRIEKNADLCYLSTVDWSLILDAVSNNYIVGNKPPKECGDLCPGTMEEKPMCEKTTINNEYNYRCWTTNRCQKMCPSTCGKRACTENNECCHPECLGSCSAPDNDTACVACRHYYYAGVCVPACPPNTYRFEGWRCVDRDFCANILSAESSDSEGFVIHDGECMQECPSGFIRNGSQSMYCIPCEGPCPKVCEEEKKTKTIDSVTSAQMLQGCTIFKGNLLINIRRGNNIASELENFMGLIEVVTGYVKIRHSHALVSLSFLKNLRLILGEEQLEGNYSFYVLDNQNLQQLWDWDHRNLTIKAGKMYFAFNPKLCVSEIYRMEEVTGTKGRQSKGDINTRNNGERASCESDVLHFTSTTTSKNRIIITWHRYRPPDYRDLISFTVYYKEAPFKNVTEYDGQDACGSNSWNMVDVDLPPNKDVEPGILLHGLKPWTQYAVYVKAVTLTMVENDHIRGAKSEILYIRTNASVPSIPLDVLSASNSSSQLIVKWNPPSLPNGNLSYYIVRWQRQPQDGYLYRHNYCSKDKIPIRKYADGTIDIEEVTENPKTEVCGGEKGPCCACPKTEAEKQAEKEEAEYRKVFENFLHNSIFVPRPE
Sequence (P08069 741-1367 limits assumed): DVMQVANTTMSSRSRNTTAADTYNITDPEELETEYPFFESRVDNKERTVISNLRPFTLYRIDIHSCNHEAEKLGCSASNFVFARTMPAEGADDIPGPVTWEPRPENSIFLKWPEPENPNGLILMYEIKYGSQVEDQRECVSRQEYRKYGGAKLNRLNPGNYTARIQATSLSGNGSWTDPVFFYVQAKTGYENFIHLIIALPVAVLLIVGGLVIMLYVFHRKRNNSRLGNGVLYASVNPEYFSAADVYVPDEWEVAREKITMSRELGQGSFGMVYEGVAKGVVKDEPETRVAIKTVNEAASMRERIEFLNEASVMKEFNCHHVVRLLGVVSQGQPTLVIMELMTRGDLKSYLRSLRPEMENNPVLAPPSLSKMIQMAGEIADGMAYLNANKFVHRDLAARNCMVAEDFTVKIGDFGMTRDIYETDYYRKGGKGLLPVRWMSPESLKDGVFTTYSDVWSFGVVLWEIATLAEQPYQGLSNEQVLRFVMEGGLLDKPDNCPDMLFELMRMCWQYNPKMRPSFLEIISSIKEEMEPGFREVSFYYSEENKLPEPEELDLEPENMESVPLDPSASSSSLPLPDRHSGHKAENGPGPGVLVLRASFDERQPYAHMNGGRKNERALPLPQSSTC

{"columns": ["MOLECULAR_STRING", "inhibition (%)"],
 "data": [
  ["COc1cccc(Nc2cc(N3CCC[C@H]3C(=O)NCCc3ccc(O)cc3)nc(N)n2)c1", 0],
  ["COc1cccc(Nc2cc(N3CCC[C@H]3C(=O)NCCN3CCCCC3)nc(N)n2)c1", 1],
  ["O=C(NCc1cccnc1)c1cccc(-c2ccc(Nc3ccc4ncsc4c3)nn2)c1", 32],
  ["CN(C)CC(C)(C)CNC(=O)c1cccc(Nc2nccc(Nc3ccc4ncsc4c3)n2)c1", 95],
  ["O=C(C1CCN(c2nccc(Nc3ccccc3)n2)CC1)N1CC[C@@H](O)C1", 0]
]}
